The following compounds are listed with their measured z-score values.
- measurement.target: NADPH oxidase 4 (Homo sapiens)
- experiment.description: compounds shifting NOX4 Amplex Red fluorescence – cell-based, HEK293-NOX4, tetracycline-induced, NOX inhibitor project, primary screen (AID 1160)
- recorded.conditions: HEK293-NOX4, Amplex Red H2O2 fluorescence, 45 min; higher = more signal, called active from +8 up or from −8 down
Could you keep your reply to the number by itself?

Check out these entries, answers already filled in.
Request the reported z-score associated with O=C(NCc1ccccc1)[C@@H]1c2ccccc2C(=O)N(Cc2cc(F)cc(C(F)(F)F)c2)[C@H]1c1ccc(CO)cc1 0.598

Request the reported z-score associated with [N-]=[N+]=NCc1ccccc1C[C@]1(C(=O)NCc2ccccc2)COC(c2ccc(OCCCO)cc2)=N1 -0.958

Request the reported z-score associated with COC(=O)[C@@]1(Cc2ccc(F)cc2)[C@H]2c3cc(C(=O)N(C)C)n(Cc4ccccn4)c3C[C@H]2CN1C(=O)c1ccccc1 1.2

New cases:
Request the reported z-score associated with COc1ccc([Si](C)(C)[C@@H]2[C@@H](CC(=O)N3Cc4ccccc4C[C@H]3CO)O[C@]3(C(=O)N(Cc4cccc(N5C(=O)COc6ccccc65)c4)c4ccccc43)[C@H]2C)cc1 0.518

Request the reported z-score associated with CC(C)(C)OC(=O)CC[C@]1(C(=O)NCC(O)CO)N=C(c2ccc(OCCCO)cc2)O[C@H]1c1ccccc1CN=[N+]=[N-] (stereo partly drawn) 1.57

Request the reported z-score associated with Cc1ccccc1/C=C/C=O -0.0992

Request the reported z-score associated with CCCNC(=O)[C@@]1(C)c2ccccc2C(=O)N(C(C)C)[C@H]1c1ccc(CO)cc1 -2.3

Request the reported z-score associated with O=C1C2C=CC(C(O)CCc3ccccc3)N(Nc3ccccc3)C2C(=O)N1c1ccccc1 (stereo not drawn) -5.33

Request the reported z-score associated with Cc1ccc(C(C)CC(O)C2C=CC3C(=O)NC(=O)C3N2Nc2ccccn2)o1 (stereo not drawn) -2.17

Request the reported z-score associated with COc1c(C)cc(-c2cc3c(c(-c4ccccc4)n2)[Si](C(C)C)(C(C)C)O[C@H]3c2ccccc2)cc1C 0.788

Request the reported z-score associated with [N-]=[N+]=NCc1ccccc1[C@H]1OC(c2ccc(OCCCO)cc2)=N[C@@]1(Cc1ccccc1)C(=O)O 1.27

Request the reported z-score associated with Cc1ccc(F)cc1S(=O)(=O)N[C@@H]1CCN(Cc2ccc(C(F)(F)F)cc2)C1 -1.19

Request the reported z-score associated with CS(=O)(=O)CCOC(=O)C1=CC(c2ccc(CO)cc2)=CC(c2cccs2)N(Cc2cccc(OC(F)(F)F)c2)C=C1C(=O)OCCS(C)(=O)=O (stereo not drawn) -1.09

Request the reported z-score associated with O=C(N1CCCCC1)[C@]1(CCS(=O)(=O)c2ccccc2)N=C(c2ccc(OCCCO)cc2)O[C@@H]1c1ccccc1 -1.7

Request the reported z-score associated with COCCOC(=O)N1C(=O)[C@@]2(c3cc(C#CCC(C(=O)OC)C(=O)OC)ccc31)[C@H](c1ccc(OCCO)cc1)N1[C@H](c3ccccc3)[C@H](c3ccccc3)OC(=O)[C@H]1[C@@H]2C(=O)NC[C@H](O)c1ccccc1 1.26

The reported numbers originate from PubChem BioAssay.
